// values below are reported Phospho-SMAD3 Human Skeletal Muscle GDF8
- system_name: ACVR2A on primary human myotubes (human, UniProt P27037 20-513)
- Sequence (P27037 20-513): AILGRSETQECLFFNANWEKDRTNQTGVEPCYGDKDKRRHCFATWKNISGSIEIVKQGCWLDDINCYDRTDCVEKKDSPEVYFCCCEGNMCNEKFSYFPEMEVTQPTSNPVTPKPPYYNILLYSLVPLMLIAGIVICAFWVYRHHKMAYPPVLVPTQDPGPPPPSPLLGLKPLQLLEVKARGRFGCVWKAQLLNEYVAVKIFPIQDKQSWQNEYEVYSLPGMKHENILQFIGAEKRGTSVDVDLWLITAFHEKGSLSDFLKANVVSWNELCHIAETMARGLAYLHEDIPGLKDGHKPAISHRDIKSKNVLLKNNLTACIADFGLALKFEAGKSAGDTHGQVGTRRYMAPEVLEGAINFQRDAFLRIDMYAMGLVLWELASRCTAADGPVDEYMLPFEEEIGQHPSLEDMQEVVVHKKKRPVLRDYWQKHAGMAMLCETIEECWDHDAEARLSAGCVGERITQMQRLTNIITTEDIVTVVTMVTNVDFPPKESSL
- run_description: cell-based or functional assay
When you answer, write just the number.

Solved cases below.
binder: 369_G01 (antibody, V domains shown) VH: EVQLLESGGGLVQPGGSLRLSCAASGFTFSSYSMNWVRQAPGKGLEWVSNINYNSGYKSYADSVKGRFTISRDNSKNTLYLQMNSLRAEDTAVYYCARSANWHDTALDYWGQGTLVTVSS VL: DIQMTQSPSSLSASVGDRVTITCRASQSILSYVNWYQQKPGKAPKLLIYAATSRASGVPSRFSGSGSGTDFTLTISSLQPEDFATYYCQQSYSSPLTFGGGTKVEIK
numeric_readout: 0.0116

binder: 374_A05 (antibody, V domains shown) VH: EVQLLESGGGLVQPGGSLRLSCAASGFTFSDYGMNWVRQAPGKGLEWVANINYNGGYKGYADSVKGRFTISRDNSKNTLYLQMNSLRAEDTAVYYCARGATWHDTHLDYWGQGTLVTVSS VL: DIQMTQSPSSLSASVGDRVTITCRASQSIVRYLNWYQQKPGKAPKLVIYAATSLASGVPSRFSGSGSGTDFTLTISSLQPEDFATYYCQQSYELPLTFGGGTKVEIK
numeric_readout: 0.0081

binder: 372_F03 (antibody, V domains shown) VH: EVQLLESGGGLVQPGGSLRLSCAASGFTFSSYGMNWVRQAPGKGLEWVAGINYNGGYTSYADSVKGRFTISRDNSKNTLYLQMNSLRAEDTAVYYCARSANWHDTALDYWGQGTLVTVSS VL: DIQMTQSPSSLSASVGDRVTITCRASQSILSYLNWYQQKPGKAPKLVIYAATSRASGVPSRFSGSGSGTDFTLTISSLQPEDFATYYCQQSYDTPLTFGGGTKVEIK
numeric_readout: 0.0646

binder: 373_B04 (antibody, V domains shown) VH: EVQLLESGGGLVQPGGSLRLSCAASGFTFSSYGMNWVRQAPGKGLEWVAGINYNSGYKGYADSVKGRFTISRDNSKNTLYLQMNSLRAEDTAVYYCARSANWHDTALDYWGQGTLVTVSS VL: DIQMTQSPSSLSASVGDRVTITCRASQSILTYLNWYQQKPGKAPKLLIYAATSRASGVPSRFSGSGSGTDFTLTISSLQPEDFATYYCQQSYETPLTFGGGTKVEIK
numeric_readout: 0.0093

binder: 373_A10 (antibody, V domains shown) VH: EVQLLESGGGLVQPGGSLRLSCAASGFTFSSYGMNWVRQAPGKGLEWVSGINYNSGYTSYADSVKGRFTISRDNSKNTLYLQMNSLRAEDTAVYYCARSANWHDTALDYWGQGTLVTVSS VL: DIQMTQSPSSLSASVGDRVTITCRASQSILSYLNWYQQKPGKAPKLVIYAATSRASGVPSRFSGSGSGTDFTLTISSLQPEDFATYYCQQSYDLPLTFGGGTKVEIK
numeric_readout: 0.0111

What measured Phospho-SMAD3 Human Skeletal Muscle GDF8 goes with 374_D08 (antibody, V domains shown) VH: EVQLLESGGGLVQPGGSLRLSCAASGFTFDSYGMNWVRQAPGKGLEWVSGINYNSGYTGYADSVKGRFTISRDNSKNTLYLQMNSLRAEDTAVYYCARSANWHDTHLDYWGQGTLVTVSS VL: DIQMTQSPSSLSASVGDRVTITCRASQSILTYLNWYQQKPGKAPKLLIYAATSRHSGVPSRFSGSGSGTDFTLTISSLQPEDFATYYCQQSYESPLTFGGGTKVEIK ?
0.23

What measured Phospho-SMAD3 Human Skeletal Muscle GDF8 goes with 367_H11 (antibody, V domains shown) VH: EVQLLESGGGLVQPGGSLRLSCAASGFTFSSYGMNWVRQAPGKGLEWVAGINYNGGYKGYADSVKGRFTISRDNSKNTLYLQMNSLRAEDTAVYYCARSANWHDTALDYWGQGTLVTVSS VL: DIQMTQSPSSLSASVGDRVTITCRASQSIISYVNWYQQKPGKAPKLVIYAATSRASGVPSRFSGSGSGTDFTLTISSLQPEDFATYYCQQSYNSPLTFGGGTKVEIK ?
0.0703
